Measured GI50 of individual entries
- Test system: UACC-257
- protocol: NCI tumour cell line growth inhibition, 48 h
Calls of active or inactive are those of the source. Cut-off read from the data, not from the text of the source: active = GI50 up to about 1.1 µM and inactive = higher.

Recorded results for 5 compounds are shown here.
Cc1ccc([N+](=O)[O-])cc1NC(=O)/C(CC(=O)c1sc(C(N)=S)nc1C)=N\N: > 100 µM (inactive)
O=C1CCC(=O)N2CCCCN12: > 100 µM (inactive)
COc1ccc2[nH]c3c(c2c1)CCc1ccccc1-3: > 100 µM (inactive)
CCOC(=O)/C(=N\Nc1ccc(-n2c(C)nc3ccccc3c2=O)cc1)C(C)=O: 26.4 µM (inactive)
C[n+]1ccc(Nc2ccc(NC(=O)c3ccc(Nc4cc[n+](C)c5ccc([N+](=O)[O-])cc45)cc3[N+](=O)[O-])cc2)cc1: 23.6 µM (inactive)

Kindly review the next compound as well.
### Prompt Hi! What's the reported GI50 for `COc1ccc(Cn2c3c(cc(OC(C)=O)c2=O)Cc2ccccc2-3)cc1` on UACC-257?
### Response 2.28 µM (inactive)

* * *

- Tested on: MCF7
- protocol: NCI tumour cell line growth inhibition, 48 h
The source made the active and inactive calls. Cut-off read from the data, not from the text of the source: active = GI50 up to about 1.1 µM and inactive = higher.
quantity-measured: GI50

Oc1ccc2ccccc2c1NCn1nc(CCCCCCCCc2nn(CNc3c(O)ccc4ccccc34)c(=S)o2)oc1=S: > 100000 nM (inactive)
CC(C)=CC(=O)c1[nH]c2ccccc2c1CC(=O)NCCc1cn(C(c2ccccc2)(c2ccccc2)c2ccccc2)cn1: 2990 nM (inactive)

Kindly review the next compound as well.
### Prompt Name the reported GI50 value associated with the compound `O=C(Nc1cccc(C(F)(F)F)c1)c1cc(Br)cc(Br)c1O`
### Response 2890 nM (inactive)

* * *

- Test system: K562
- protocol: NCI tumour cell line growth inhibition, 48 h
Activity calls are given as the source filed them. Cut-off read from the data, not from the text of the source: active = GI50 up to about 1.1 µM and inactive = higher.
Measured GI50 of individual entries

### Prompt Name the reported GI50 value associated with the compound `O=C1NC(=S)N(c2ccccc2)C1=O`
### Response > 100 µM (inactive)

### Prompt Name the reported GI50 value associated with the compound `Cc1cccc(NC(=O)CSc2nnc(Cc3ccccc3)o2)c1`
### Response > 100 µM (inactive)

### Prompt Name the reported GI50 value associated with the compound `CC1(C)OC(=O)CC12CCN(Cc1ccccc1)CC2`
### Response > 100 µM (inactive)

### Prompt Name the reported GI50 value associated with the compound CCOc1cc(NC(C)=O)ccc1C(=O)NN1C(=O)CSC1c1ccc(O)c(OC)c1 (stereo not given)
### Response 40.7 µM (inactive)

### Prompt Name the reported GI50 value associated with the compound `CN(C)c1n/c(=N/c2ccc3ccccc3c2)ss1`
### Response 15.1 µM (inactive)

### Prompt Name the reported GI50 value associated with the compound `Cc1cc(OCc2nnc3n2S(=O)(=O)c2ccccc2N3C)ccc1Cl`
### Response 68.7 µM (inactive)

### Prompt Name the reported GI50 value associated with the compound `O=Cc1ccccc1CCn1c(=O)c2cc3c(=O)n(CCc4ccccc4C=O)c(=O)c3cc2c1=O`
### Response > 100 µM (inactive)

### Prompt Name the reported GI50 value associated with the compound Cc1ccc(C2=Nc3ccccc3[S+]([O-])C(c3ccc4c(c3)OCO4)C2)cc1 (stereo not given)
### Response 27.7 µM (inactive)

### Prompt Name the reported GI50 value associated with the compound `Cc1cc2c([N+](=O)[O-])cc3c(c2o1)C(=O)C=CC3=O`
### Response 1.79 µM (inactive)

### Prompt Name the reported GI50 value associated with the compound `COc1cc(C(=O)/C=C/c2ccc(OCC#N)cc2)cc(OC)c1OC`
### Response 24.5 µM (inactive)
